experiment: in vitro; settings: rat, SITb: selectivity index as the ratio of cytotoxic to anti-T. brucei IC50 values
Result type: selectivity ratio at 6 days
Just the number, please, no unit after it.

Query block: # lookup: selectivity ratio at 6 days of CC1CS(=O)(=O)CCN1/N=C/c1ccc([N+](=O)[O-])o1 (stereo not shown) [nifurtimox, reference compound]
Result block: 7.3

###

selectivity ratio at 6 days by entry:
assay: in vitro; conditions: rat, rat skeletal muscle L6 cells, SILi: selectivity index as the ratio of cytotoxic to anti-L. infantum IC50 values, L6 IC50 / L. infantum IC50
Lab note: record just the number, no unit beside it.

The following molecules have reported results that may help.
{"columns": ["Test smiles", "Observed value"],
 "data": [
  ["NCc1ccc(-c2nc3ccc(Cl)cc3c3c2CCCN3)cc1", 0.8],
  ["NCc1ccc(-c2nc3ccc(Cl)cc3c3c2CCCO3)cc1", 1.1],
  ["Clc1ccc2nc(-c3cccs3)c(CCCN3CCCC3)cc2c1", 0.7]
]}

Query block: // lookup selectivity ratio at 6 days for CCN(CC)CCCc1cc2cc(Cl)ccc2nc1-c1cccs1
Result block: 1.1

Query block: Please answer likewise for N#Cc1ccc(-c2nc3ccc(Cl)cc3c3c2CCCO3)cc1
Result block: 1.5

###

test system: bloodstream form T. brucei (strain 221); assay: Trypanocidal activity against cultured bloodstream form T. brucei (resazurin); conditions: Trypanosoma brucei, pH 7.4, read-out: T. brucei IC50, bloodstream form, pH 7.4; mean of triplicate ± SEM
pIC50: −log10 of the molar value.
Catalogue of compounds with associated pIC50

{"columns": ["Compound", "Target", "Result type", "Observed value"],
 "data": [
  ["N#Cc1ccc([C@H]2Nc3ccc(Cl)cc3[C@@H]3OCCC[C@H]23)cc1 [Compound 37]", "bloodstream form T. brucei (strain 221)", "pIC50", "< 4.52"],
  ["Clc1ccc2nc(-c3cccs3)c(CCCN3CCCC3)cc2c1 [Compound 49]", "bloodstream form T. brucei (strain 221)", "pIC50", "~5.30"],
  ["N#Cc1ccc(-c2nc3ccc(Cl)cc3c3c2CCN3)cc1 [Compound 26]", "bloodstream form T. brucei (strain 221)", "pIC50", "< 4.52"],
  ["OCCCc1cc2cc(Cl)ccc2nc1-c1ccco1 [Compound 44]", "bloodstream form T. brucei (strain 221)", "pIC50", "< 4.60"],
  ["N#Cc1ccc(-c2nc3cc(Cl)ccc3cc2CCCN)cc1 [Compound 35]", "bloodstream form T. brucei (strain 221)", "pIC50", "~5.30"]
]}

Query block: Find the recorded pIC50 belonging to N#Cc1ccc(-c2nc3cc(Cl)ccc3c3c2CCCN3)cc1 [Compound 29] and report it.
Result block: < 4.52

Query block: Ok, now Clc1ccc2nc(-c3ccco3)c3c(c2c1)OCCC3 [Compound 42]
Result block: 4.66

Query block: Proceed to N#CCCc1cc2cc(Cl)ccc2nc1-c1cccs1 [Compound 47]
Result block: < 4.60

Query block: Same lookup for OCCCc1cc2cc(Cl)ccc2nc1-c1cccs1 [Compound 45] , please.
Result block: < 4.60

Query block: Another compound: NCc1ccc(-c2nc3ccc(Cl)cc3c3c2CCN3)cc1 [Compound 30]
Result block: 6.04

Query block: # repeat for N#Cc1ccc(-c2nc3ccc(Cl)cc3c3c2CCCN3)cc1 [Compound 27]
Result block: 5.22

Query block: Similarly, CCN(CC)CCCc1cc2cc(Cl)ccc2nc1-c1cccs1 [Compound 50] ?
Result block: ~5.30

###

# pIC50 listing for each entry below
test system: L. infantum strain MCAN/ES/92/BCN722 promastigote forms; assay: Activity against promastigotes of L. infantum (acid phosphatase); format: cell-based, Leishmania infantum; conditions: Leishmania infantum, promastigote form; mean ± SD of duplicate experiments performed at least twice
pIC50: −log10 of the molar value.

Would you please look over these solved cases?
{"columns": ["Test smiles", "pIC50"],
 "data": [
  ["NCc1ccc(-c2nc3ccc(Cl)cc3c3c2CCCCN3)cc1", "5.10 to 5.30"],
  ["Clc1ccc2nc(-c3cccs3)c(CCCN3CCCC3)cc2c1", "~4.82"],
  ["N#Cc1ccc(-c2nc3ccc(Cl)cc3c3c2CCN3)cc1", "< 3.70"],
  ["N#Cc1ccc([C@H]2Nc3ccc(Cl)cc3[C@@H]3OCCC[C@H]23)cc1", "< 3.70"]
]}

Let us move to another entry and its pIC50.
Query block: Query (molecule): NCc1ccc(-c2nc3ccc(Cl)cc3c3c2CCCN3Cc2ccccc2)cc1 ; field requested: pIC50
Result block: ~4.52
